study.target: UniProtKB P0DPI0
protocol.details: Inhibition of Clostridium botulinum BoNT/A holotoxin-mediated SNAP-25 cleavage in mouse HBG3 cell-derived motor neurons assessed as full length of SNAP-25 at 10 uM preincubated for 30 mins followed by intoxication measured after 4 hrs by Western blot method relative to control
Set-up: scale not given: the % may be the effect or the level left
Each item that follows carries a reported Activity.
Field: numeric (%). Do not append units.

Consider the following illustrative entries.
C[C@H](CCCNCCCCNc1ccnc2cc(Cl)ccc12)[C@H]1CC[C@H]2[C@@H]3[C@H](O)C[C@@H]4C[C@H](N)CC[C@]4(C)[C@H]3C[C@H](O)[C@]12C | 46
N#Cc1ccc2scc(-c3ccc(CNCCCCNc4ccnc5ccccc45)cc3)c2c1 | 21

# context switch: different compound, same Activity
Observed Activity on UniProtKB P0DPI0, entry N#Cc1ccc(-c2ccc(-c3ccc(CNCCCCCCNc4ccnc5ccccc45)cc3)s2)cc1 , equals 22
